Tested on: rhabdomyosarcoma (RD) cells
Assay: Toxicity on treated, uninfected RD cells (MTS/PMS readout)
Format: cell-based
Details: uninfected, treated RD cells; MTS/PMS; at least three independent dose-response curves
REPORTED ENDPOINT: CC50

CC50 for OC[C@H]1O[C@@H](n2cnc3c(NCc4c(F)cccc4F)ncnc32)[C@H](O)[C@@H]1O [Compound 8, N^6-(2,6-difluorobenzyl) adenosine] is > 254 µM

---

System: EV71 strain BrCr
Test: Cytopathic effect (CPE) reduction antiviral assay against EV71 in RD cells (MTS/PMS readout)
Assay type: cell-based, human enterovirus 71
Details: SI = CC50/EC50; EV71 BrCr, RD cells
Reported SI (Selectivity Index) by item:
# respond with the number and nothing more

Example results:
compound="OC[C@H]1O[C@@H](n2cnc3c(NCc4ccco4)ncnc32)[C@H](O)[C@@H]1O [Compound 3, N^6-furfuryladenosine, reference compound]" result_number=5.6
compound=OC[C@H]1O[C@@H](n2cnc3c(NCc4cccc(F)c4)ncnc32)[C@H](O)[C@@H]1O result_number=26
compound=OC[C@H]1O[C@@H](n2cnc3c(NCc4ccc(F)cc4)ncnc32)[C@H](O)[C@@H]1O result_number=19
compound=OC[C@H]1O[C@@H](n2cnc3c(NCc4ccccc4F)ncnc32)[C@H](O)[C@@H]1O result_number=44

SI (Selectivity Index) for CC(C)=CCNc1ncnc2c1ncn2[C@@H]1O[C@H](CO)[C@@H](O)[C@H]1O [Compound 2, N^6-isopenthenyladenosine, reference compound] is 6.0

SI (Selectivity Index) for OC[C@H]1O[C@@H](n2cnc3c(NCc4ccccc4)ncnc32)[C@H](O)[C@@H]1O is 15

---

Experiment: Toxicity on treated, uninfected RD cells (MTS/PMS readout)
Assay type: cell-based
Details: human, uninfected rhabdomyosarcoma (RD) cells, uninfected, treated RD cells; MTS/PMS; at least three independent dose-response curves
Reported CC50 by item:

compound_string=OC[C@H]1O[C@@H](n2cnc3c(NCc4c(F)cccc4F)ncnc32)[C@H](O)[C@@H]1O result="> 250 µM"
compound_string=OC[C@H]1O[C@@H](n2cnc3c(NCc4cccc(C(F)(F)F)c4)ncnc32)[C@H](O)[C@@H]1O result="> 235 µM"
compound_string=OC[C@H]1O[C@@H](n2cnc3c(NCc4ccc(C(F)(F)F)cc4)ncnc32)[C@H](O)[C@@H]1O result="> 235 µM"

CC50 for OC[C@H]1O[C@@H](n2cnc3c(NCc4ccccc4C(F)(F)F)ncnc32)[C@H](O)[C@@H]1O is > 235 µM

---

Reported SI (Selectivity Index) by item:
Test system: EV71 strain BrCr
Assay: Cytopathic effect (CPE) reduction antiviral assay against EV71 in RD cells (MTS/PMS readout)
Assay type: cell-based, human enterovirus 71
Settings: SI = CC50/EC50; EV71 BrCr, RD cells

Example results:
compound_string=OC[C@H]1O[C@@H](n2cnc3c(NCc4ccc(C(F)(F)F)cc4)ncnc32)[C@H](O)[C@@H]1O result=>235
compound_string=OC[C@H]1O[C@@H](n2cnc3c(NCc4c(F)cccc4F)ncnc32)[C@H](O)[C@@H]1O result=>1210
compound_string=OC[C@H]1O[C@@H](n2cnc3c(NCc4ccccc4C(F)(F)F)ncnc32)[C@H](O)[C@@H]1O result=>235

SI (Selectivity Index) for OC[C@H]1O[C@@H](n2cnc3c(NCc4cccc(C(F)(F)F)c4)ncnc32)[C@H](O)[C@@H]1O is >3456
